# Test system: Liver microsomes
# ASSAY PROCEDURE: Intrinsic clearance in human liver microsomes
# Type: ADME, Microsome

| INPUT SMILES | SYSTEM UNDER TEST | RELATION SIGN | CL, mL/min/g |
| --- | --- | --- | --- |
| Cc1ccc2c(N3CCN(CCc4c(C)ccc5c4ccc(=O)n5C)[C@H](C)C3)cccc2n1 | Liver microsomes | = | 1.2 |
| Cc1ccc2c(N3CCN(CCc4cccc5c4ccc(=O)n5C)CC3)cccc2n1 | Liver microsomes | = | 1.2 |
| Cc1ccc2c(N3CCN(CCc4c(C)ccc5c4CCC(=O)N5C)CC3)cccc2n1 | Liver microsomes | = | 1.3 |
| Cc1ccc2c(N3CCN(CCc4cccc5c4OCC(=O)N5)CC3)cccc2n1 | Liver microsomes | = | 1 |
| Cc1ccc2c(N3CCN(CCc4c(C)ccc5c4ccc(=O)n5C)CC3)cccc2n1 | Liver microsomes | = | 1.5 |
| Cc1ccc2c(C3CCN(CCc4c(C)ccc5c4ccc(=O)n5C)CC3)cccc2n1 | Liver microsomes | = | 0.9 |
| Cc1ccc2c(N3CCN(CCc4c(C)ccc5c4ccc(=O)n5C)[C@@H](C)C3)cccc2n1 | Liver microsomes | < | 0.5 |
| Cc1ccc2c(N3CCN(CCc4cccc5c4ccc(=O)n5C)[C@@H](C)C3)cccc2n1 | Liver microsomes | = | 1.5 |
| Cc1ccc2c(N3CCN(CCc4c(C)ccc5c4ccc(=O)n5C)CC3)cc(F)cc2n1 | Liver microsomes | = | 1.6 |

----------
# SYSTEM UNDER TEST: Voltage-gated inwardly rectifying potassium channel KCNH2 (Homo sapiens, UniProt Q12809)
# Sequence (Q12809 whole entry): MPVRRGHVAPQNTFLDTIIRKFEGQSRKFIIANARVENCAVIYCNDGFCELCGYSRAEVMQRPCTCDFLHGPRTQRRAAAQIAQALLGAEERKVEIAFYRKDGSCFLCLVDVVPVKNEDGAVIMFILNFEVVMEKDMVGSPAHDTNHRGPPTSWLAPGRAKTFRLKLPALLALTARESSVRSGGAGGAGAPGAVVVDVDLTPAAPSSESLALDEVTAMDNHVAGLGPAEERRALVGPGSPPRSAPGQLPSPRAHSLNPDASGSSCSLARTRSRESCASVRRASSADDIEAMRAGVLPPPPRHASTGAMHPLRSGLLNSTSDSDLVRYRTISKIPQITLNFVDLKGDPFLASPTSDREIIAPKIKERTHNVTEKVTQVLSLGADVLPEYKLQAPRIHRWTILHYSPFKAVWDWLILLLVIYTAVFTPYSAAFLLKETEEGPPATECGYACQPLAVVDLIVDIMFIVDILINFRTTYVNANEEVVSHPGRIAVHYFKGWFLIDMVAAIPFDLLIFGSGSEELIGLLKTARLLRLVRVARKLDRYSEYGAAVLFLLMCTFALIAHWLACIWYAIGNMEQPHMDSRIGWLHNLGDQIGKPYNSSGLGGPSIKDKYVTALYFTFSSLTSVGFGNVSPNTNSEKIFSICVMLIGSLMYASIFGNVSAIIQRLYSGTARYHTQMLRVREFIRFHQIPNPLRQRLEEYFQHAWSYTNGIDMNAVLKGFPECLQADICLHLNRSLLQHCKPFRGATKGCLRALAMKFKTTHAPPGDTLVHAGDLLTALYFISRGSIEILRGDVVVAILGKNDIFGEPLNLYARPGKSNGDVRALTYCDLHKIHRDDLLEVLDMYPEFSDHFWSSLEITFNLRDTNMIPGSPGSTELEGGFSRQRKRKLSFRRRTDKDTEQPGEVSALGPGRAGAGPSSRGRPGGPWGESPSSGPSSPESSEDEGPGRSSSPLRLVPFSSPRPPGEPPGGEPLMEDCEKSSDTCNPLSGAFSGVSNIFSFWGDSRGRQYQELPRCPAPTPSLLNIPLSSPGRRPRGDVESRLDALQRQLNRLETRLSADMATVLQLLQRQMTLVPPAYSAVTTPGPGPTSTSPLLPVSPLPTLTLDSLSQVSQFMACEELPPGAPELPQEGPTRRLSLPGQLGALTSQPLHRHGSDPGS
# ASSAY PROCEDURE: Displacement of [3H]-dofetilide in human hERG expressed in CHO cells by proximity assay
pKi: −log10 of the molar value.
PARAMETER: pKi

| INPUT SMILES | READING |
| --- | --- |
| Cc1ccc2c(N3CCN(CCc4c(C)ccc5c4CCC(=O)N5C)CC3)cccc2n1 | 6.10 |
| Cc1ccc2c(N3CCN(CCc4c(C)ccc5c4ccc(=O)n5C)CC3)cc(F)cc2n1 | 5.60 |
| Cc1ccc2c(N3CCN(CCc4c(F)ccc5c4ccc(=O)n5C)CC3)cccc2n1 | 4.50 |
| Cc1ccc2c(N3CCN(CCc4c(C)ccc5c4CCC(=O)N5)CC3)cccc2n1 | 5.40 |
| Cc1ccc2c(C3CCN(CCc4c(C)ccc5c4ccc(=O)n5C)CC3)cccc2n1 | 5.70 |
| Cc1ccc2c(N3CCN(CCc4cccc5c4ccc(=O)n5C)[C@@H](C)C3)cccc2n1 | 5.30 |
| Cc1ccc2c(N3CCN(CCc4c(C)ccc5c4ccc(=O)n5C)[C@H](C)C3)cccc2n1 | 5.10 |
| Cc1ccc2c(N3CCN(CCc4cccc5c4CCC(=O)N5C)CC3)cccc2n1 | 5.40 |

----------
# SYSTEM UNDER TEST: 5-hydroxytryptamine receptor 1B (Homo sapiens, UniProt P28222)
# Sequence (P28222 whole entry): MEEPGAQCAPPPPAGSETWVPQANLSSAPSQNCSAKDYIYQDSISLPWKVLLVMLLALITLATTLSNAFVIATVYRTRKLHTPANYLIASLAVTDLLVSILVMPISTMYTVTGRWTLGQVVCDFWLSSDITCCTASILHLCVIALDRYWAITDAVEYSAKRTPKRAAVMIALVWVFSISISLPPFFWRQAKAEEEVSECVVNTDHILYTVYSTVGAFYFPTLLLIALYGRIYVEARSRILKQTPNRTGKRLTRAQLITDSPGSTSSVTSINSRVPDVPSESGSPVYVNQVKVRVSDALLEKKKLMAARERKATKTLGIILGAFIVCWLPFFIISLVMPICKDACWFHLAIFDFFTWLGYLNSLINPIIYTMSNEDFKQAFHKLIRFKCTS
# ASSAY PROCEDURE: Antagonist activity at human 5-HT1B receptor expressed in CHO cells assessed as inhibition of GTPgammaS binding by scintillation proximity assay
pKi: −log10 of the molar value.
PARAMETER: pKi

| INPUT SMILES | PARAMETER | RELATION SIGN | READING |
| --- | --- | --- | --- |
| Cc1ccc2c(N3CCN(CCc4c(C)ccc5c4ccc(=O)n5C)[C@@H](C)C3)cc(F)cc2n1 | pKi | < | 6.00 |
| Cc1ccc2c(N3CCN(CCc4c(F)ccc5c4ccc(=O)n5C)CC3)cccc2n1 | pKi | = | 7.50 |
| Cc1ccc2c(N3CCN(CCc4cccc5c4ccc(=O)n5C)[C@H](C)C3)cc(F)cc2n1 | pKi | = | 9.10 |
| Cc1ccc2c(N3CCN(CCc4c(C)ccc5c4ccc(=O)n5C)[C@H](C)C3)cccc2n1 | pKi | < | 6.00 |
| Cc1ccc2c(N3CCN(CCc4cccc5c4ccc(=O)n5C)[C@@H](C)C3)cc(F)cc2n1 | pKi | = | 6.50 |
| Cc1ccc2c(N3CCN(CCc4cccc5c4ccc(=O)n5C)[C@@H](C)C3)cccc2n1 | pKi | = | 6.40 |
| Cc1ccc2c(N3CCN(CCc4cccc5c4ccc(=O)n5C)CC3)cccc2n1 | pKi | = | 9.10 |

----------
# SYSTEM UNDER TEST: UniProt:P28221
# Sequence (P28221 whole entry): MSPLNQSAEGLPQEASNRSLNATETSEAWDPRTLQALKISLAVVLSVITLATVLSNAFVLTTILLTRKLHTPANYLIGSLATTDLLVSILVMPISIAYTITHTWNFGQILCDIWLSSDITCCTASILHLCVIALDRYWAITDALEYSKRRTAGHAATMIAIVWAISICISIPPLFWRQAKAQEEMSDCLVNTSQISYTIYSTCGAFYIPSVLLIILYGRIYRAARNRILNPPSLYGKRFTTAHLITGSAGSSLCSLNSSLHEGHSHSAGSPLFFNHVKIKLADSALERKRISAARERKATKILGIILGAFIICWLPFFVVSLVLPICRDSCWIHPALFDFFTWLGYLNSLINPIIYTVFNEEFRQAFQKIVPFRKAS
# ASSAY PROCEDURE: Agonist activity at human 5-HT1D receptor expressed in CHO cells assessed as stimulation of GTPgammaS binding by scintillation proximity assay
Overview of recorded EC50 for various compounds
PARAMETER: EC50

| INPUT SMILES | SYSTEM UNDER TEST | READING |
| --- | --- | --- |
| Cc1ccc2c(N3CCN(CCc4c(C)ccc5c4CCC(=O)N5)CC3)cccc2n1 | UniProt:P28221 | 5.01 nM |
| Cc1ccc2c(N3CCN(CCc4cccc5c4ccc(=O)n5C)CC3)cccc2n1 | UniProt:P28221 | 1 nM |

----------
# SYSTEM UNDER TEST: 5-hydroxytryptamine receptor 1A (Homo sapiens)
# ASSAY PROCEDURE: Intrinsic activity at human 5-HT1A receptor expressed in HEK293 cells assessed as effect on GTPgammaS binding by scintillation proximity assay relative to 5HT
# Format: functional, cell-based
Here the recorded Intrinsic activity is given for each entry.

| INPUT SMILES | Intrinsic activity |
| --- | --- |
| Cc1ccc2c(N3CCN(CCc4c(C)ccc5c4ccc(=O)n5C)CC3)cccc2n1 | 0 |
| Cc1ccc2c(N3CCN(CCc4cccc5c4ccc(=O)n5C)CC3)cccc2n1 | 0.4 |
| Cc1ccc2c(N3CCN(CCc4c(C)ccc5c4CCC(=O)N5)CC3)cccc2n1 | 0.3 |
| Cc1ccc2c(N3CCN(CCc4cccc5c4ccc(=O)n5C)C(C)(C)C3)cccc2n1 | 0.3 |
| Cc1ccc2c(N3CCN(CCc4cccc5[nH]c(=O)ccc45)CC3)cccc2n1 | 0 |
| Cc1ccc2c(N3CCN(CCc4c(C)ccc5c4ccc(=O)n5C)CC3)cc(F)cc2n1 | 0 |
| Cc1ccc2c(N3CCN(CCc4c(C)ccc5c4ccc(=O)n5C)[C@@H](C)C3)cccc2n1 | 0 |
| Cc1ccc2c(N3CCN(CCc4cccc5c4CCC(=O)N5C)CC3)cccc2n1 | 0 |
| Cc1ccc2c(N3CCN(CCc4c(C)ccc5c4CCC(=O)N5C)CC3)cccc2n1 | 0 |
| Cc1ccc2c(C3CCN(CCc4c(C)ccc5c4ccc(=O)n5C)CC3)cccc2n1 | 0 |
| Cc1ccc2c(N3CCN(CCc4c(F)ccc5c4ccc(=O)n5C)CC3)cccc2n1 | 0 |
| Cc1ccc2c(N3CCN(CCc4c(C)ccc5c4ccc(=O)n5C)[C@@H](C)C3)cc(F)cc2n1 | 0 |
| Cc1ccc2c(N3CCN(CCc4c(Cl)ccc5c4ccc(=O)n5C)CC3)cccc2n1 | 0 |
| Cc1ccc2c(N3CCN(CCc4c(C)ccc5[nH]c(=O)ccc45)CC3)cccc2n1 | 0 |
| Cc1ccc2c(N3CCN(CCc4cccc5c4ccc(=O)n5C)[C@H](C)C3)cc(F)cc2n1 | 0 |
| Cc1ccc2c(N3CCN(CCc4c(C)ccc5c4ccc(=O)n5C)[C@H](C)C3)cccc2n1 | 0 |
| Cc1ccc2c(N3CCN(CCc4cccc5c4ccc(=O)n5C)[C@@H](C)C3)cc(F)cc2n1 | 0 |
| Cc1ccc2c(N3CCN(CCc4cccc5c4ccc(=O)n5C)[C@@H](C)C3)cccc2n1 | 0 |
| Cc1ccc2c(N3CCN(CCc4cccc5c4CCC(=O)N5)CC3)cccc2n1 | 0 |

----------
# SYSTEM UNDER TEST: 5-hydroxytryptamine receptor 1B (Homo sapiens)
# ASSAY PROCEDURE: Intrinsic activity at human 5-HT1B receptor expressed in CHO cells assessed as effect on GTPgammaS binding by scintillation proximity assay relative to 5HT
# Assay type: functional, cell-based

| INPUT SMILES | Intrinsic activity |
| --- | --- |
| Cc1ccc2c(N3CCN(CCc4cccc5c4CCC(=O)N5)CC3)cccc2n1 | 0 |
| Cc1ccc2c(N3CCN(CCc4c(F)ccc5c4ccc(=O)n5C)CC3)cccc2n1 | 0 |
| Cc1ccc2c(N3CCN(CCc4c(C)ccc5[nH]c(=O)ccc45)CC3)cccc2n1 | 0.4 |
| Cc1ccc2c(N3CCN(CCc4cccc5c4ccc(=O)n5C)[C@@H](C)C3)cc(F)cc2n1 | 0 |
| Cc1ccc2c(N3CCN(CCc4cccc5c4ccc(=O)n5C)[C@H](C)C3)cc(F)cc2n1 | 0 |
| Cc1ccc2c(N3CCN(CCc4cccc5c4ccc(=O)n5C)CC3)cccc2n1 | 0 |
| Cc1ccc2c(N3CCN(CCc4c(C)ccc5c4CCC(=O)N5)CC3)cccc2n1 | 0.4 |
| Cc1ccc2c(N3CCN(CCc4c(Cl)ccc5c4ccc(=O)n5C)CC3)cccc2n1 | 0.5 |
| Cc1ccc2c(N3CCN(CCc4cccc5c4CCC(=O)N5C)CC3)cccc2n1 | 0 |
| Cc1ccc2c(N3CCN(CCc4cccc5[nH]c(=O)ccc45)CC3)cccc2n1 | 0 |

Value source: ChEMBL document CHEMBL1287678
